structure_string	melting point
C[C@@H]1CN(c2cc(Cl)cc3c2S(=O)(=O)N(Cc2ccccc2Cl)C(=O)N3Cc2ccccc2)CCN1	134 to 136 °C
Cc1ccccc1CN1C(=O)N(Cc2ccccc2)c2cc(Cl)cc(N3CCNCC3)c2S1(=O)=O	70 to 72 °C
COc1cccc(CN2C(=O)N(Cc3ccccc3)c3cc(Cl)cc(N4CCNCC4)c3S2(=O)=O)c1	98 to 100 °C
CN1CCN(c2cc(Cl)cc3c2S(=O)(=O)N(Cc2cccc(Br)c2)C(=O)N3Cc2ccccc2)CC1	96 to 98 °C

---

The entries below come with measured IC50 values attached.
Target: 5-HT7 (Homo sapiens)
Construct: purchased Euroscreen/BioSignal Packard Inc
Sequence (P34969 whole entry): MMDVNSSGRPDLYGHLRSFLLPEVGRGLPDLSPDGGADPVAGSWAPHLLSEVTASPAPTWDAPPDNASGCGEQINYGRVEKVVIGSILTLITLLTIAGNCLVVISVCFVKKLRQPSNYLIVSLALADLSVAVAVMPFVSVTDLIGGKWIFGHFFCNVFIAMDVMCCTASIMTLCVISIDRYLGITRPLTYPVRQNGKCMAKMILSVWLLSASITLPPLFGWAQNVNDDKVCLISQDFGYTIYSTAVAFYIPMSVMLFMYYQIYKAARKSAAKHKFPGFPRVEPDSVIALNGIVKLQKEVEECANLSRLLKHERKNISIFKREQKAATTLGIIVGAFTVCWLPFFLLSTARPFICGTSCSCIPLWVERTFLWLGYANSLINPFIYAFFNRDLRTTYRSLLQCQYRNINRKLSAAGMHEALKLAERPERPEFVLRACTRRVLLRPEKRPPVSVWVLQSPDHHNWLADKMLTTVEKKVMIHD
Assay: Radioligand binding, 5-HT receptor family: 5-HT7 ([3H]LSD)
Conditions: CHO-K1 human recombinant receptor, [3H]LSD 3 nM; read-out: Binding affinity, IC50 (nM), 5-HT7
property_label: IC50

structure_string	property_label	assay_value
CN1CCN(c2cc(Cl)cc3c2S(=O)(=O)N(Cc2cccc4ccccc24)C(=O)N3Cc2ccccc2)CC1	IC50	> 10000 nM
COc1cccc(N2C(=O)N(Cc3ccccc3)c3cc(Cl)cc(N4CCNCC4)c3S2(=O)=O)c1	IC50	> 10000 nM
Cc1cc(C)cc(CCCN2C(=O)N(Cc3ccccc3)c3cc(Cl)cc(N4CCNCC4)c3S2(=O)=O)c1	IC50	4530 nM
CN1CCN(c2cc(Cl)cc3c2S(=O)(=O)N(Cc2ccccc2Cl)C(=O)N3Cc2ccccc2)CC1	IC50	> 10000 nM

---

Target: Human serotonin 5-HT6 receptor (Homo sapiens)
Experiment: [3H]LSD binding assay on cloned 5-HT6 receptor
Settings: Binding affinity, IC50 (nM), 5-HT6, Table 4
The entries below come with measured IC50 values attached.
property_label: IC50 (nM)

compound	property_label	units_symbol	assay_value
CN1CCN(c2cc(Cl)cc3c2S(=O)(=O)N(c2ccccc2)C(=O)N3Cc2ccccc2)CC1 [Example 27]	IC50	nM	3.8
CCCN1C(=O)N(Cc2ccccc2)c2cc(Cl)cc(N3CCN(C)CC3)c2S1(=O)=O [Example 34]	IC50	nM	0.4
CN1CCN(c2cc(Cl)cc3c2S(=O)(=O)N(Cc2ccc(Cl)cc2)C(=O)N3Cc2ccccc2)CC1 [Example 7]	IC50	nM	2.3
COc1cccc(CN2C(=O)N(Cc3ccccc3)c3cc(Cl)cc(N4CCNCC4)c3S2(=O)=O)c1 [Example 52]	IC50	nM	2
CCN1C(=O)N(Cc2ccccc2)c2cc(Cl)cc(N3CCN(C)CC3)c2S1(=O)=O [Example 33]	IC50	nM	0.3
C[C@H](c1ccccc1)N1C(=O)N(Cc2ccccc2)c2cc(Cl)cc(N3CCN(C)CC3)c2S1(=O)=O [Example 25]	IC50	nM	1.1
O=C1N(Cc2ccccc2)c2cc(Cl)cc(N3CCNCC3)c2S(=O)(=O)N1Cc1cccc(O)c1 [Example 54]	IC50	nM	5.8
Cc1cc(C)cc(CCCN2C(=O)N(Cc3ccccc3)c3cc(Cl)cc(N4CCNCC4)c3S2(=O)=O)c1 [Example 66]	IC50	nM	3.8

---

Target: hD3 receptor (Homo sapiens)
Construct: purchased BioSignal Packard Inc., Montreal, Canada
Sequence (P35462 whole entry): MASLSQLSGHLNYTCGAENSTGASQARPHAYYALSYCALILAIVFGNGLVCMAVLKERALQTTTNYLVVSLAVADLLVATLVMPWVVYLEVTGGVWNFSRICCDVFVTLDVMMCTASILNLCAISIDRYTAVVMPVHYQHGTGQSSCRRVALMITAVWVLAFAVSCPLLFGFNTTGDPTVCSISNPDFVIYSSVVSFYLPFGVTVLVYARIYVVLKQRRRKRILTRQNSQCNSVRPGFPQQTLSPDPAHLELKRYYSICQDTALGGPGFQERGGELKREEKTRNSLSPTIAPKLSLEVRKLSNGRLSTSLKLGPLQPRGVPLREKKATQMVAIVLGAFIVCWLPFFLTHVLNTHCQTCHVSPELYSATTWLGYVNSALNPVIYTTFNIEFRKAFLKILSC
Assay: Dopamine receptor family binding: D3 ([3H]spiperone)
Conditions: [3H]spiperone 1 nM; read-out: Binding affinity, IC50 (nM), D3
Returns: string. Value is Satisfied if measured IC50 is below 2000 nM, and Not satisfied if it is greater than or equal to it.

structure_string	tested_system	class_name
C[C@@H](c1ccccc1)N1C(=O)N(Cc2ccccc2)c2cc(Cl)cc(N3CCN(C)CC3)c2S1(=O)=O	hD3 receptor (Homo sapiens)	Satisfied
C[C@H](c1ccccc1)N1C(=O)N(Cc2ccccc2)c2cc(Cl)cc(N3CCN(C)CC3)c2S1(=O)=O	hD3 receptor (Homo sapiens)	Satisfied
CCCN1C(=O)N(Cc2ccccc2)c2cc(Cl)cc(N3CCN(C)CC3)c2S1(=O)=O	hD3 receptor (Homo sapiens)	Satisfied
O=C1N(Cc2ccccc2)c2cc(Cl)cc(N3CCNCC3)c2S(=O)(=O)N1Cc1cccc(O)c1	hD3 receptor (Homo sapiens)	Satisfied
CCCCCCCCN1C(=O)N(Cc2ccccc2)c2cc(Cl)cc(N3CCN(C)CC3)c2S1(=O)=O	hD3 receptor (Homo sapiens)	Satisfied
COc1cccc(N2C(=O)N(Cc3ccccc3)c3cc(Cl)cc(N4CCNCC4)c3S2(=O)=O)c1	hD3 receptor (Homo sapiens)	Not satisfied
CN1CCN(c2cc(Cl)cc3c2S(=O)(=O)N(c2ccccc2)C(=O)N3Cc2ccccc2)CC1	hD3 receptor (Homo sapiens)	Not satisfied

---

Biological target: 5-HT2c (Homo sapiens, UniProt P28335)
Construct: purchased Euroscreen/BioSignal Packard Inc
Sequence (P28335 33-458): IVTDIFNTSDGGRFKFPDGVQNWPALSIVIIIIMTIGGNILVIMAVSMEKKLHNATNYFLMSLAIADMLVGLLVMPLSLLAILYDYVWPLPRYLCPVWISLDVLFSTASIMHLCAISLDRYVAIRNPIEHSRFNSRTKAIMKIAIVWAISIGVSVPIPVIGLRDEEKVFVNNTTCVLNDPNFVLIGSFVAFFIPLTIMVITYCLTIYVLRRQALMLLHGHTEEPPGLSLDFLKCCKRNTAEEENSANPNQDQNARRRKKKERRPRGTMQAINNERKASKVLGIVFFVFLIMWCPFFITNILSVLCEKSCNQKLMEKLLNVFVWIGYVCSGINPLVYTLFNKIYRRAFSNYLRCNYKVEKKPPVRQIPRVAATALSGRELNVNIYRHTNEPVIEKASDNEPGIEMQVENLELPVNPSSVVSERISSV
Assay: Radioligand binding, 5-HT receptor family: 5-HT2c ([3H]Mesulergine)
Details: CHO-K1 human recombinant receptor, [3H]Mesulergine 1 nM; read-out: Binding affinity, IC50 (nM), 5-HT2c

structure_string	IC50
CN1CCN(c2cc(Cl)cc3c2S(=O)(=O)N(Cc2cccc(F)c2)C(=O)N3Cc2ccccc2)CC1	2190 nM
CN1CCN(c2cc(Cl)cc3c2S(=O)(=O)N(c2ccccc2)C(=O)N3Cc2ccccc2)CC1	2580 nM
COc1cccc(CN2C(=O)N(Cc3ccccc3)c3cc(Cl)cc(N4CCNCC4)c3S2(=O)=O)c1	1350 nM
CN1CCN(c2cc(Cl)cc3c2S(=O)(=O)N(Cc2cccc4ccccc24)C(=O)N3Cc2ccccc2)CC1	257 nM
O=C1N(Cc2ccccc2)c2cc(Cl)cc(N3CCNCC3)c2S(=O)(=O)N1Cc1cccc(O)c1	1800 nM
CCCN1C(=O)N(Cc2ccccc2)c2cc(Cl)cc(N3CCN(C)CC3)c2S1(=O)=O	203 nM
COc1cccc(CN2C(=O)N(Cc3ccccc3)c3cc(Cl)cc(N4CCN(C)CC4)c3S2(=O)=O)c1	899 nM
C[C@H](c1ccccc1)N1C(=O)N(Cc2ccccc2)c2cc(Cl)cc(N3CCN(C)CC3)c2S1(=O)=O	691 nM

---

The entries below come with measured IC50 values attached.
Target: Human serotonin 5-HT6 receptor (Homo sapiens, UniProt P50406)
Sequence (P50406 whole entry): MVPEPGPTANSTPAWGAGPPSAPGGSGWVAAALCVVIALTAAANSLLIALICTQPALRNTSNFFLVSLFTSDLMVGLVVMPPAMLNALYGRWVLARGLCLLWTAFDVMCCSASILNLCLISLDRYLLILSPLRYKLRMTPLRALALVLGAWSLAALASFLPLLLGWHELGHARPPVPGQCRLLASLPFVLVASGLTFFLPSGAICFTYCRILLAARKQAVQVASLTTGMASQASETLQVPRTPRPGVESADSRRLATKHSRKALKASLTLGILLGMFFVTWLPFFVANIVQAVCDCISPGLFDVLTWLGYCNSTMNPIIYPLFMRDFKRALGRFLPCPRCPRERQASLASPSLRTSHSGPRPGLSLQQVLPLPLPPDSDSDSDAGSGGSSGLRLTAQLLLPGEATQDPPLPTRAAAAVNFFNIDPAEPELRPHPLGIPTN
Test: [3H]LSD binding assay on cloned 5-HT6 receptor
Details: IC50 (nM), binding affinity to the 5-HT6 receptor, Table 2; 1.87 nM [3H]LSD, cloned human receptor membranes from Sf21 cells, 37° C. 60 min

compound	IC50
Cc1ccc(CN2C(=O)N(Cc3ccccc3)c3cc(Cl)cc(N4CCN(C)CC4)c3S2(=O)=O)cc1 [Example 15]	5.4 nM
Cc1cc(C)cc(CCCN2C(=O)N(Cc3ccccc3)c3cc(Cl)cc(N4CCNCC4)c3S2(=O)=O)c1 [Example 66]	3.8 nM
CN1CCN(c2cc(Cl)cc3c2S(=O)(=O)N(C)C(=O)N3Cc2ccccc2)CC1 [Example 32]	4.2 nM
CCCCCCCCCCN1C(=O)N(Cc2ccccc2)c2cc(Cl)cc(N3CCN(C)CC3)c2S1(=O)=O [Example 40]	4.5 nM
CCCN1C(=O)N(Cc2ccccc2)c2cc(Cl)cc(N3CCN(C)CC3)c2S1(=O)=O [Example 34]	0.4 nM
CN1CCN(c2cc(Cl)cc3c2S(=O)(=O)N(Cc2ccc(F)cc2)C(=O)N3Cc2ccccc2)CC1 [Example 4]	5.4 nM
COc1ccccc1CN1C(=O)N(Cc2ccccc2)c2cc(Cl)cc(N3CCN(C)CC3)c2S1(=O)=O [Example 16]	4.6 nM
CN1CCN(c2cc(Cl)cc3c2S(=O)(=O)N(Cc2ccc(Br)cc2)C(=O)N3Cc2ccccc2)CC1 [Example 10]	6.1 nM
CCCCCCCCN1C(=O)N(Cc2ccccc2)c2cc(Cl)cc(N3CCN(C)CC3)c2S1(=O)=O [Example 39]	1.8 nM
CCN1C(=O)N(Cc2ccccc2)c2cc(Cl)cc(N3CCNCC3)c2S1(=O)=O [Example 64]	4.6 nM
COc1cccc(CN2C(=O)N(Cc3ccccc3)c3cc(Cl)cc(N4CCN(C)CC4)c3S2(=O)=O)c1 [Example 17]	10.6 nM
CN1CCN(c2cc(Cl)cc3c2S(=O)(=O)N(Cc2cccc(Cl)c2)C(=O)N3Cc2ccccc2)CC1 [Example 6]	5.2 nM
Cc1ccc(CN2C(=O)N(Cc3ccccc3)c3cc(Cl)cc(N4CCN(C)CC4)c3S2(=O)=O)o1 [Example 43]	75.9 nM
COc1ccc(N2C(=O)N(Cc3ccccc3)c3cc(Cl)cc(N4CCNCC4)c3S2(=O)=O)cc1 [Example 63]	28 nM
O=C1N(Cc2ccccc2)c2cc(Cl)cc(N3CCNCC3)c2S(=O)(=O)N1c1ccccc1 [Example 60]	15.5 nM
CN1CCN(c2cc(Cl)cc3c2S(=O)(=O)N(Cc2ccc(Cl)cc2)C(=O)N3Cc2ccccc2)CC1 [Example 7]	2.3 nM
O=C1N(Cc2ccccc2)c2cc(Cl)cc(N3CCN4CCCC[C@@H]4C3)c2S(=O)(=O)N1Cc1ccccc1Cl [Example 75]	396 nM
COc1ccc(CN2C(=O)N(Cc3ccccc3)c3cc(Cl)cc(N4CCN(C)CC4)c3S2(=O)=O)cc1 [Example 18]	3.6 nM
CN1CCN(c2cc(Cl)cc3c2S(=O)(=O)N(Cc2ccccc2[N+](=O)[O-])C(=O)N3Cc2ccccc2)CC1 [Example 20]	12.3 nM
CN1CCN(c2cc(Cl)cc3c2S(=O)(=O)N(Cc2cccc(I)c2)C(=O)N3Cc2ccccc2)CC1 [Example 11]	4.4 nM
Cc1cccc(CN2C(=O)N(Cc3ccccc3)c3cc(Cl)cc(N4CCN(C)CC4)c3S2(=O)=O)c1 [Example 14]	11.6 nM
COc1cccc(N2C(=O)N(Cc3ccccc3)c3cc(Cl)cc(N4CCN(C)CC4)c3S2(=O)=O)c1 [Example 29]	1.7 nM
O=C1N(Cc2ccccc2)c2cc(Cl)cc(N3CCNCC3)c2S(=O)(=O)N1Cc1cccc(O)c1 [Example 54]	1 nM
COc1ccccc1N1C(=O)N(Cc2ccccc2)c2cc(Cl)cc(N3CCN(C)CC3)c2S1(=O)=O [Example 28]	7.1 nM
Cc1ccccc1CN1C(=O)N(Cc2ccccc2)c2cc(Cl)cc(N3CCN(C)CC3)c2S1(=O)=O [Example 13]	1.6 nM
CN1CCN(c2cc(Cl)cc3c2S(=O)(=O)N(Cc2cccc(Br)c2)C(=O)N3Cc2ccccc2)CC1 [Example 9]	2.2 nM
CN1CCN(c2cc(Cl)cc3c2S(=O)(=O)N(CCc2ccccc2)C(=O)N3Cc2ccccc2)CC1 [Example 37]	6.9 nM
CN1CCN(c2cc(Cl)cc3c2S(=O)(=O)N(Cc2cccc4ccccc24)C(=O)N3Cc2ccccc2)CC1 [Example 41]	0.8 nM
CN1CCN(c2cc(Cl)cc3c2S(=O)(=O)N(Cc2ccc(I)cc2)C(=O)N3Cc2ccccc2)CC1 [Example 12]	1.4 nM
CN1CCN(c2cc(Cl)cc3c2S(=O)(=O)N(c2ccccc2)C(=O)N3Cc2ccccc2)CC1 [Example 27]	3.8 nM
